molecular target: Saccharomyces cerevisiae α-glucosidase (Saccharomyces cerevisiae); construct: purchased; test: In vitro α-glucosidase inhibition assay (p-nitrophenyl glucopyranoside substrate); assay type: biochemical; conditions: 200 μM
Sequence (P53341 whole entry): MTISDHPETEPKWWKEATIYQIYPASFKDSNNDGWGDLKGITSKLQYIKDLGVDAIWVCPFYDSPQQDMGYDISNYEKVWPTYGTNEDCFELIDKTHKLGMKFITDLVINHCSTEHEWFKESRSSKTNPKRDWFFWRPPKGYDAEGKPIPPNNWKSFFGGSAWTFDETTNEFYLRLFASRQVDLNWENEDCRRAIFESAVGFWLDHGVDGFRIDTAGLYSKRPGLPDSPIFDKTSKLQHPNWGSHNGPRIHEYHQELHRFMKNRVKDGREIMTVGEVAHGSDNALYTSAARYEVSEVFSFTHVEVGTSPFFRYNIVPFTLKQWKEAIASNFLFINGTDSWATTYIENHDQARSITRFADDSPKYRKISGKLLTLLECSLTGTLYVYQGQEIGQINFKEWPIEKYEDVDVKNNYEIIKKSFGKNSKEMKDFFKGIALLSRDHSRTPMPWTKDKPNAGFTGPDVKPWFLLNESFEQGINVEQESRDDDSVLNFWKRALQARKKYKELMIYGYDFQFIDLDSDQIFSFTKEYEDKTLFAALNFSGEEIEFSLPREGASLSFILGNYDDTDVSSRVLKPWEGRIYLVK
property measured: inhibition at 200 µM (%)
One number for each entry, in %.

Some solved cases for reference:
compound	inhibition at 200 µM / %
CCOC(=O)C(NC(=O)CN1C(=O)N/C(=C\c2ccc3c(c2)OCO3)C1=O)C(C)C (centres unmarked)	57.4
COC(=O)C(NC(=O)CN1C(=O)N/C(=C\c2ccc(C)cc2)C1=O)C(C)C (centres unmarked)	45.2
COC(=O)C(NC(=O)CN1C(=O)N/C(=C\c2ccc(OC)cc2)C1=O)C(C)C (centres unmarked)	41
CCCC(NC(=O)CN1C(=O)N/C(=C\c2ccc(C)cc2)C1=O)C(=O)OC (centres unmarked)	42.8

Proceeding to the next compound to report its inhibition at 200 µM.
Problem: Tell us which inhibition at 200 µM value is on record for CCC(NC(=O)CN1C(=O)NC(=Cc2ccc(OC)cc2)C1=O)C(=O)OC (centres unmarked)
Solution: 39.3

* * *

Would you mind telling me the reported inhibition at 50 µM of each entry?
molecular target: Saccharomyces cerevisiae α-glucosidase (Saccharomyces cerevisiae); construct: purchased; assay: In vitro α-glucosidase inhibition assay (p-nitrophenyl glucopyranoside substrate); format: biochemical; details: 50 μM
Give bare numbers, in %.

Some entries whose results are on file:
compound	tested system	property measured	recorded number
CCCC(NC(=O)CN1C(=O)N/C(=C\c2ccc3c(c2)OCO3)C1=O)C(=O)OC (stereo not drawn)	Saccharomyces cerevisiae α-glucosidase (Saccharomyces cerevisiae)	inhibition at 50 µM	16
CCCC(NC(=O)CN1C(=O)N/C(=C\c2ccc(C)cc2)C1=O)C(=O)OCC (stereo not drawn)	Saccharomyces cerevisiae α-glucosidase (Saccharomyces cerevisiae)	inhibition at 50 µM	14.5
CCCC(NC(=O)CN1C(=O)N/C(=C\c2ccc(C)cc2)C1=O)C(=O)OC (stereo not drawn)	Saccharomyces cerevisiae α-glucosidase (Saccharomyces cerevisiae)	inhibition at 50 µM	16.3

Hi! Can you tell me inhibition at 50 µM for each of these compounds?
1. CCC(NC(=O)CN1C(=O)NC(=Cc2ccc(OC)cc2)C1=O)C(=O)OC (stereo not drawn)
2. CCC(NC(=O)CN1C(=O)N/C(=C\c2ccc(C)cc2)C1=O)C(=O)OC (stereo not drawn)
3. CCC(NC(=O)CN1C(=O)N/C(=C\c2ccc3c(c2)OCO3)C1=O)C(=O)OC (stereo not drawn)
4. COC(=O)C(NC(=O)CN1C(=O)N/C(=C\c2ccc(C)cc2)C1=O)C(C)C (stereo not drawn)
5. CCOC(=O)C(NC(=O)CN1C(=O)N/C(=C\c2ccc3c(c2)OCO3)C1=O)C(C)C (stereo not drawn)

Solution:
1: 0.43; 2: 8.87; 3: 6.94; 4: 4.13; 5: 14

Problem: Tell me its inhibition at 50 µM on Saccharomyces cerevisiae α-glucosidase (Saccharomyces cerevisiae): CCOC(=O)C(NC(=O)CN1C(=O)N/C(=C\c2ccc(C)cc2)C1=O)C(C)C (stereo not drawn)
Solution: 13.8

* * *

biological target: Saccharomyces cerevisiae α-glucosidase (Saccharomyces cerevisiae); construct: purchased; experiment: In vitro α-glucosidase inhibition assay (p-nitrophenyl glucopyranoside substrate); assay type: biochemical; settings: 100 μM
property measured: inhibition at 100 µM (%)
Numbers only, in %.

compound	measurement unit	inhibition at 100 µM
CCOC(=O)C(NC(=O)CN1C(=O)N/C(=C\c2ccc(C)cc2)C1=O)C(C)C (stereo not shown)	%	19.2

The following compounds each have a reported value; give each one's inhibition at 100 µM.
1. CCC(NC(=O)CN1C(=O)N/C(=C\c2ccc3c(c2)OCO3)C1=O)C(=O)OC (stereo not shown)
2. COC(=O)C(NC(=O)CN1C(=O)N/C(=C\c2ccc(C)cc2)C1=O)C(C)C (stereo not shown)

Solution:
[11.2, 18]

Problem: Please report inhibition at 100 µM for the following compound: O=C(O[C@@H]1Cc2c(O)cc(O)cc2O[C@@H]1c1cc(O)c(O)c(O)c1)c1cc(O)c(O)c(O)c1 [EGCG, Epigallocatechin gallate, reference compound]
Solution: 97

* * *

biological target: Saccharomyces cerevisiae α-glucosidase (Saccharomyces cerevisiae); construct: purchased; assay: In vitro α-glucosidase inhibition assay (p-nitrophenyl glucopyranoside substrate); type: biochemical; settings: 100 μM
property measured: inhibition at 100 µM (%)
Numbers only, in %.

molecule	property measured	recorded number
COC(=O)C(C)NC(=O)CN1C(=O)N/C(=C\c2ccc(C)cc2)C1=O (centres unmarked)	inhibition at 100 µM	9.75
COC(=O)C(C)NC(=O)CN1C(=O)N/C(=C\c2ccc3c(c2)OCO3)C1=O (centres unmarked)	inhibition at 100 µM	9.6
CCC(NC(=O)CN1C(=O)N/C(=C\c2ccc(C)cc2)C1=O)C(=O)OC (centres unmarked)	inhibition at 100 µM	12.2
CCCC(NC(=O)CN1C(=O)N/C(=C\c2ccc(C)cc2)C1=O)C(=O)OC (centres unmarked)	inhibition at 100 µM	25.4

// each molecule listed below needs its inhibition at 100 µM
1. CCCC(NC(=O)CN1C(=O)N/C(=C\c2ccc(C)cc2)C1=O)C(=O)OCC (centres unmarked)
2. COC(=O)C(NC(=O)CN1C(=O)N/C(=C\c2ccc(OC)cc2)C1=O)C(C)C (centres unmarked)
3. CCCC(NC(=O)CN1C(=O)N/C(=C\c2ccc3c(c2)OCO3)C1=O)C(=O)OC (centres unmarked)
4. CCOC(=O)C(NC(=O)CN1C(=O)N/C(=C\c2ccc3c(c2)OCO3)C1=O)C(C)C (centres unmarked)

Solution:
[17, 9.51, 37.4, 28.3]

* * *

target: Saccharomyces cerevisiae α-glucosidase (Saccharomyces cerevisiae); construct: purchased; experiment: In vitro α-glucosidase inhibition assay (p-nitrophenyl glucopyranoside substrate); format: biochemical; settings: 50 μM
property measured: inhibition at 50 µM (%)
One number for each entry, in %.

Examples from the recorded data:
molecule	inhibition at 50 µM, %
COC(=O)C(NC(=O)CN1C(=O)N/C(=C\c2ccc(OC)cc2)C1=O)C(C)C (stereo not shown)	3.37
COC(=O)C(C)NC(=O)CN1C(=O)N/C(=C\c2ccc(C)cc2)C1=O (stereo not shown)	9.01
O=C(O[C@@H]1Cc2c(O)cc(O)cc2O[C@@H]1c1cc(O)c(O)c(O)c1)c1cc(O)c(O)c(O)c1 [EGCG, Epigallocatechin gallate, reference compound]	97

Next molecule, inhibition at 50 µM to be filled in.
Problem: Using known records, supply inhibition at 50 µM for COC(=O)C(C)NC(=O)CN1C(=O)N/C(=C\c2ccc3c(c2)OCO3)C1=O (stereo not shown)
Solution: 7.7

* * *

Field: inhibition at 200 µM. Provide a value for each of the molecules that follow.
target: Saccharomyces cerevisiae α-glucosidase (Saccharomyces cerevisiae); construct: purchased; test: In vitro α-glucosidase inhibition assay (p-nitrophenyl glucopyranoside substrate); assay type: biochemical; details: 200 μM
Answers are plain numbers, in %.

Kindly give each listed record's inhibition at 200 µM.
1. CCCC(NC(=O)CN1C(=O)N/C(=C\c2ccc3c(c2)OCO3)C1=O)C(=O)OC (stereo not drawn)
2. CCOC(=O)C(NC(=O)CN1C(=O)N/C(=C\c2ccc(C)cc2)C1=O)C(C)C (stereo not drawn)

Solution:
1. 57.8
2. 48.5

* * *

target: Saccharomyces cerevisiae α-glucosidase (Saccharomyces cerevisiae); construct: purchased; assay: In vitro α-glucosidase inhibition assay (p-nitrophenyl glucopyranoside substrate); assay type: biochemical; conditions: 10 μM
For each record, write down the corresponding inhibition at 10 µM.
Answers are plain numbers, in %.

molecule	property measured	recorded number
CCC(NC(=O)CN1C(=O)N/C(=C\c2ccc(C)cc2)C1=O)C(=O)OC (stereo not shown) [8 f]	inhibition at 10 µM	4.92
CCOC(=O)C(NC(=O)CN1C(=O)N/C(=C\c2ccc3c(c2)OCO3)C1=O)C(C)C (stereo not shown) [8 n]	inhibition at 10 µM	0.73
CCCC(NC(=O)CN1C(=O)N/C(=C\c2ccc(C)cc2)C1=O)C(=O)OC (stereo not shown) [8 h]	inhibition at 10 µM	3.45
COC(=O)C(NC(=O)CN1C(=O)N/C(=C\c2ccc(C)cc2)C1=O)C(C)C (stereo not shown) [8 g]	inhibition at 10 µM	1.8
CCOC(=O)C(NC(=O)CN1C(=O)N/C(=C\c2ccc(C)cc2)C1=O)C(C)C (stereo not shown) [8 j]	inhibition at 10 µM	6.49
O=C(O[C@@H]1Cc2c(O)cc(O)cc2O[C@@H]1c1cc(O)c(O)c(O)c1)c1cc(O)c(O)c(O)c1 [EGCG, Epigallocatechin gallate, reference compound]	inhibition at 10 µM	97

Problem: Quickly give me recorded inhibition at 10 µM for CCCC(NC(=O)CN1C(=O)N/C(=C\c2ccc3c(c2)OCO3)C1=O)C(=O)OC (stereo not shown) [8 o]
Solution: 11.3

* * *

test system: Caco2 cell line; conditions: 48 hours of treatment with 100 μM, below 2000 considered toxic
Assignment: determine reported Cytotoxicity, live cells for the given molecules.
One number for each entry.

Some entries whose results are on file:
molecule	recorded number
COC(=O)C(C)NC(=O)CN1C(=O)N/C(=C\c2ccc(C)cc2)C1=O (stereo not drawn)	2567
CCOC(=O)C(C)NC(=O)CN1C(=O)N/C(=C\c2ccc(C)cc2)C1=O (stereo not drawn)	2595
COC(=O)C(C)NC(=O)CN1C(=O)N/C(=C\c2ccc(OC)cc2)C1=O (stereo not drawn)	2605
CCOC(=O)C(NC(=O)CN1C(=O)N/C(=C\c2ccc(C)cc2)C1=O)C(C)C (stereo not drawn)	2565
CCC(NC(=O)CN1C(=O)N/C(=C\c2ccc(C)cc2)C1=O)C(=O)OC (stereo not drawn)	2230

Problem: Return Cytotoxicity, live cells for the following molecule: CCOC(=O)C(NC(=O)CN1C(=O)N/C(=C\c2ccc3c(c2)OCO3)C1=O)C(C)C (stereo not drawn)
Solution: 2039

Data provenance: paper PMC11973506
